test system: HL-60; test: cells; conditions: Homo sapiens, HL-60, 48 h
Description: Cytotoxicity against human HL60 cells assessed as inhibition of cell proliferation after 48 hrs by MTT assay
quantityMeasured: IC50

compoundsmiles=O=S(=O)(c1ccc(F)cc1F)N(c1ccccc1)c1ccnc2ccc(-c3ccc(O)cc3)cc12 testedsystem=HL-60 quantitymeasured=IC50 measuredresult="< 10 µM"
compoundsmiles=CC(=O)Nc1ccc(S(=O)(=O)N(c2ccccc2)c2ccnc3ccc(-c4ccc(O)cc4)cc23)cc1 testedsystem=HL-60 quantitymeasured=IC50 measuredresult="16 µM"
compoundsmiles=O=C(c1cccnc1Cl)N(c1ccccc1)c1ccnc2ccc(-c3ccc(O)cc3)cc12 testedsystem=HL-60 quantitymeasured=IC50 measuredresult="< 10 µM"
compoundsmiles=Cc1c(C)c(C)c(S(=O)(=O)N(c2ccccc2)c2ccnc3ccc(-c4ccc(O)cc4)cc23)c(C)c1C testedsystem=HL-60 quantitymeasured=IC50 measuredresult="> 100 µM"
compoundsmiles=N#Cc1ccc(S(=O)(=O)N(c2ccccc2)c2ccnc3ccc(-c4ccc(O)cc4)cc23)cc1 testedsystem=HL-60 quantitymeasured=IC50 measuredresult="58 µM"
compoundsmiles=O=C(c1ccccc1F)N(c1ccccc1)c1ccnc2ccc(-c3ccc(O)cc3)cc12 testedsystem=HL-60 quantitymeasured=IC50 measuredresult="< 10 µM"
compoundsmiles=O=S(=O)(c1ccccc1)N(c1ccccc1)c1ccnc2ccc(-c3ccc(O)cc3)cc12 testedsystem=HL-60 quantitymeasured=IC50 measuredresult="< 10 µM"
compoundsmiles=O=S(=O)(c1ccc(Br)cc1)N(c1ccccc1)c1ccnc2ccc(-c3ccc(O)cc3)cc12 testedsystem=HL-60 quantitymeasured=IC50 measuredresult="< 10 µM"
compoundsmiles=O=[N+]([O-])c1ccc(S(=O)(=O)N(c2ccccc2)c2ccnc3ccc(-c4ccc(O)cc4)cc23)cc1 testedsystem=HL-60 quantitymeasured=IC50 measuredresult="< 10 µM"
compoundsmiles=COc1ccc(-c2ccc3nccc(Nc4ccccc4)c3c2)cc1 testedsystem=HL-60 quantitymeasured=IC50 measuredresult="18 µM"
compoundsmiles=COc1ccc(S(=O)(=O)N(c2ccccc2)c2ccnc3ccc(-c4ccc(O)cc4)cc23)cc1 testedsystem=HL-60 quantitymeasured=IC50 measuredresult="< 10 µM"

---

pIC50: recorded values
test: cells; details: Homo sapiens, MIA PaCa-2, 48 h
Description: Cytotoxicity against human MIAPaCa2 cells assessed as inhibition of cell proliferation after 48 hrs by MTT assay
pIC50: −log10 of the molar value.
quantityMeasured: pIC50

compoundsmiles=O=S(=O)(c1ccccc1)N(c1ccccc1)c1ccnc2ccc(-c3ccc(O)cc3)cc12 measuredresult="> 5.00"
compoundsmiles=CC(C)(C)c1ccc(S(=O)(=O)N(c2ccccc2)c2ccnc3ccc(-c4ccc(O)cc4)cc23)cc1 measuredresult="> 5.00"
compoundsmiles=O=S(=O)(c1ccc(F)cc1F)N(c1ccccc1)c1ccnc2ccc(-c3ccc(O)cc3)cc12 measuredresult="> 5.00"
compoundsmiles=Cc1c(C)c(C)c(S(=O)(=O)N(c2ccccc2)c2ccnc3ccc(-c4ccc(O)cc4)cc23)c(C)c1C measuredresult="< 4.00"
compoundsmiles=O=S(=O)(c1ccc2c(c1)OCCO2)N(c1ccccc1)c1ccnc2ccc(-c3ccc(O)cc3)cc12 measuredresult="> 5.00"
compoundsmiles=O=C(c1cccnc1Cl)N(c1ccccc1)c1ccnc2ccc(-c3ccc(O)cc3)cc12 measuredresult="> 5.00"
compoundsmiles=Cc1ccc(S(=O)(=O)N(c2ccccc2)c2ccnc3ccc(-c4ccc(O)cc4)cc23)cc1 measuredresult="> 5.00"
compoundsmiles=COc1ccc(S(=O)(=O)N(c2ccccc2)c2ccnc3ccc(-c4ccc(O)cc4)cc23)cc1 measuredresult="> 5.00"

---

test system: HL-60; assay: Cytotoxicity against human HL60 cells assessed as growth inhibition at 100 uM after 24 to 48 hrs by MTT assay relative to control; assay type: functional; conditions: read-out: GI
The following compounds are shown together with reported inhibition of growth at 100 µM values.
quantityMeasured: inhibition of growth at 100 µM

compoundsmiles=Cc1c(C)c(C)c(S(=O)(=O)N(c2ccccc2)c2ccnc3ccc(-c4ccc(O)cc4)cc23)c(C)c1C testedsystem=HL-60 quantitymeasured="inhibition of growth at 100 µM" measuredresult=15%
compoundsmiles=Nc1ccc(S(=O)(=O)N(c2ccccc2)c2ccnc3ccc(-c4ccc(O)cc4)cc23)cc1 testedsystem=HL-60 quantitymeasured="inhibition of growth at 100 µM" measuredresult=92%
compoundsmiles=COc1ccc(-c2ccc3nccc(Nc4ccccc4)c3c2)cc1 testedsystem=HL-60 quantitymeasured="inhibition of growth at 100 µM" measuredresult=91%

Each recorded value in this set is attributed to ChEMBL document CHEMBL3593172.
